Origin of the recorded values: patent US11708381B2

test system: LNCaP95 cells; assay: Antiproliferative activity, resazurin assay, LNCaP95 cells; assay type: cell-based; details: LNCaP-95; enzalutamide-resistant LNCaP95 cells, 72 h, cell proliferation; read-out: IC50 (μM) LCaP95
Classify: Met when IC50 is strictly less than 0.2 µM; Not met when IC50 is not.

Query: Please state whether IC50 is below 0.2 µM for N#Cc1ccc(NC(=O)c2cc(F)ccc2O)c(F)c1
Response: Not met

Query: Now consider O=C(Nc1ccc(C(F)(F)F)cc1F)c1cc(F)ccc1O .
Response: Met

Query: Now consider O=C(Nc1ccc(C(F)(F)F)c(C(F)(F)F)c1)c1cc(F)ccc1O [drawing 30] .
Response: Met

Query: Now consider N#Cc1cc(NC(=O)c2cc(F)ccc2O)ccc1C(F)(F)F .
Response: Met

Query: Now consider O=C(Nc1ccc(C(F)(F)F)cc1Cl)c1cc(F)ccc1O .
Response: Met
